Biological target: 5-HT2C receptor (Homo sapiens)
Construct: host or cells: U2OS
Sequence (P28335 33-458): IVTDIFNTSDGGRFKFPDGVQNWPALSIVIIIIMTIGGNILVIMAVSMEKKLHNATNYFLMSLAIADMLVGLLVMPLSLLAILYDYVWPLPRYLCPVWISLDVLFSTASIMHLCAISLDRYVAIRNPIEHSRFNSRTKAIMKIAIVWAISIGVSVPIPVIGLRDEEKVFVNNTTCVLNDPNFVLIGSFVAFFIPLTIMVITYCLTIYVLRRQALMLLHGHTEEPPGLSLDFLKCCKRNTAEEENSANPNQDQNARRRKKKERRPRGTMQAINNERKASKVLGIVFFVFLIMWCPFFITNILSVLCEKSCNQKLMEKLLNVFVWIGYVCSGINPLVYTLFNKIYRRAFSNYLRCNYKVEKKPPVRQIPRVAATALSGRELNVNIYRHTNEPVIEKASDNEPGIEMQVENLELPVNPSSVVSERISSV
Sequence (P32121 whole entry partner): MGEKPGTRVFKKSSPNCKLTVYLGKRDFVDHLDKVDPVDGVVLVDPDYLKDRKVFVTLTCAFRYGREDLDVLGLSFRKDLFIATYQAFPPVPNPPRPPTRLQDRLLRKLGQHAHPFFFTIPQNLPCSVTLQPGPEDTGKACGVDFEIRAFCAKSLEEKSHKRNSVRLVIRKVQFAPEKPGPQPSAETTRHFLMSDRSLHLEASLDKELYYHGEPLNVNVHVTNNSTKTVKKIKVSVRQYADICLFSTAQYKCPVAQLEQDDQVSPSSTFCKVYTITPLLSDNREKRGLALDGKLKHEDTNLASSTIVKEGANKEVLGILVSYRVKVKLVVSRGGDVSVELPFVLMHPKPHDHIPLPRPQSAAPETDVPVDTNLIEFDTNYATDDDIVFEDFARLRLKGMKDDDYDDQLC
Assay: Human 5-HT2C functional assay (beta-arrestin2 recruitment, U2OS_HTR2C_β-Arrestin cells)
Assay type: cell-based
Settings: relative efficacy vs maximal effect induced by 5-HT (defined as 100%)
MEASURED_PARAMETER: Emax

Here is how some compounds turned out for Emax.
COMPOUND	Emax
COC[C@@H]1C[C@@H]2CNCCN2c2cccc(C3CC3)c2O1.Cl [Example 48, hydrochloride]	> 70%
COC[C@@H]1C[C@@H]2CNCCN2c2c(F)c(F)cc(C(F)F)c2O1.Cl [Example 26, hydrochloride]	> 70%
COC[C@@H]1C[C@@H]2CNCCN2c2cccc(OC(F)F)c2O1	> 70%
COC[C@@H]1C[C@@H]2CNCCN2c2nccc(C(F)F)c2O1.O=C(O)C(F)(F)F	> 70%
Cl.OC[C@@H]1C[C@@H]2CNCCN2c2cccc(Cl)c2O1 [Example 14, hydrochloride]	> 70%

Task: If you can, please state the reported Emax value of C#Cc1cc(F)c2c(c1)N1CCNC[C@H]1C[C@@H](COC)O2.O=C(O)C(O)C(O)C(=O)O .
Result: 50 to 70%

Task: Queued: Cl.OC[C@@H]1C[C@@H]2CNCCN2c2cc(F)cc(C(F)F)c2O1 [Example 23, hydrochloride]
Result: > 70%

Task: Same lookup for COC[C@@H]1C[C@@H]2CNCCN2c2c(F)cccc2O1.Cl [Example 54, hydrochloride] , please.
Result: 30 to 50%

* * *

Target: human 5-HT2B receptor (Homo sapiens, UniProt P41595)
Construct: expressed in transfected cells; host or cells: CHO-FlpIn
Sequence (P41595 whole entry): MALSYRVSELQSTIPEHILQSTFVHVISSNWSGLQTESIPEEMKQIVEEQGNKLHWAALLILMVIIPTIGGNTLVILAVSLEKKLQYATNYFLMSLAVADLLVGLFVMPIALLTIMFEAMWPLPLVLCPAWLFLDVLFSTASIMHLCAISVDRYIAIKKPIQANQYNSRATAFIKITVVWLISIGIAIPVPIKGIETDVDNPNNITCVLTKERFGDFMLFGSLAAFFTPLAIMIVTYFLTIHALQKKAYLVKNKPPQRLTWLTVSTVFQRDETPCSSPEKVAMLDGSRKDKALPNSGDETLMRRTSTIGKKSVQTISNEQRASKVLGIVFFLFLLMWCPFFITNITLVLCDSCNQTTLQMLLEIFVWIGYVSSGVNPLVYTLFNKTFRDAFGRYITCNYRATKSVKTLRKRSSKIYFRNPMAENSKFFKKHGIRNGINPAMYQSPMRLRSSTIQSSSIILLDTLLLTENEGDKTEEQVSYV
Assay: Human 5-HT2B functional assay (calcium mobilisation in CHO-FlpIn cells, FLIPR)
Format: cell-based
Conditions: based on agonism: EC50 5-HT2B/EC50 5-HT2C
MEASURED_PARAMETER: Selectivity over 5-HT2B

Solved entries:
COMPOUND	ASSAY_SYSTEM	Selectivity over 5-HT2B
COC[C@@H]1C[C@@H]2CNCCN2c2c(F)c(F)c(OC)c(Cl)c2O1.Cl [Example 53]	human 5-HT2B receptor (Homo sapiens, UniProt P41595)	+++ (>100)
COC[C@@H]1C[C@@H]2CNCCN2c2ccc(F)cc2O1.Cl [Example 51]	human 5-HT2B receptor (Homo sapiens, UniProt P41595)	++ (from >30 to 100)
COC[C@H]1C[C@@H]2CNCCN2c2cc(F)cc(Cl)c2O1.Cl [Example 35]	human 5-HT2B receptor (Homo sapiens, UniProt P41595)	+ (from 10 to 30)
COC[C@@H]1C[C@@H]2CNCCN2c2c(F)ccc(Cl)c2O1.O=C(O)/C=C/C(=O)O [Example 15]	human 5-HT2B receptor (Homo sapiens, UniProt P41595)	+++ (>100)
COC[C@@H]1C[C@@H]2CNCCN2c2c(F)c(OC)cc(C(F)F)c2O1.Cl [Example 29]	human 5-HT2B receptor (Homo sapiens, UniProt P41595)	+++ (>100)

Task: Which Selectivity over 5-HT2B value is on record for COC[C@@H]1C[C@@H]2CNCCN2c2cc(F)cc(C(F)F)c2O1.Cl [Example 9] ?
Result: +++ (>100)

Task: Similarly, COC[C@@H]1C[C@@H]2CNCCN2c2cc(F)cc(C(F)(F)F)c2O1.Cl [Example 22] ?
Result: ++ (from >30 to 100)

Task: Please give the result for COC[C@H]1C[C@@H]2CNCCN2c2cccc(Cl)c2O1.O=C(O)C(F)(F)F [Example 2] too.
Result: +++ (>100)

Task: Try this compound next: COC[C@@H]1C[C@@H]2CNCCN2c2cccc(C#N)c2O1.Cl [Example 12]
Result: + (from 10 to 30)

Task: Try the compound COC[C@@H]1C[C@@H]2CNCCN2c2ccc(C)c(F)c2O1 [Example 30]
Result: ++ (from >30 to 100)

Task: And COC[C@@H]1C[C@@H]2CNCCN2c2cc(OC)cc(Cl)c2O1.Cl [Example 44] ?
Result: ++ (from >30 to 100)

Task: Follow-up item: COC[C@@H]1C[C@@H]2CNCCN2c2cc(C)cc(F)c2O1 [Example 33]
Result: + (from 10 to 30)

Task: // next record C#Cc1cc(F)cc2c1O[C@H](COC)C[C@@H]1CNCCN21.Cl [Example 34]
Result: + (from 10 to 30)

Task: Entry to check: COC[C@@H]1C[C@@H]2CNCCN2c2cc(Cl)c(F)cc2O1.Cl [Example 31]
Result: ++ (from >30 to 100)

Task: What about this compound? COC[C@@H]1C[C@@H]2CNCCN2c2c(F)cccc2O1.Cl [Example 54]
Result: + (from 10 to 30)

Task: Then this compound: Cl.[2H]C([2H])([2H])OC[C@@H]1C[C@@H]2CNCCN2c2cc(F)cc(Cl)c2O1 [Example 19]
Result: ++ (from >30 to 100)

Task: What would you report for COC[C@@H]1C[C@@H]2CNCCN2c2c(cc(F)c(F)c2F)O1.Cl [Example 47] ?
Result: +++ (>100)

Task: Let us now turn to COC[C@@H]1C[C@@H]2CNCCN2c2ccc(F)c(Cl)c2O1.Cl [Example 5]
Result: + (from 10 to 30)
